Target: dopamine D2-receptors (Rattus norvegicus)
Sequence (P61169 whole entry): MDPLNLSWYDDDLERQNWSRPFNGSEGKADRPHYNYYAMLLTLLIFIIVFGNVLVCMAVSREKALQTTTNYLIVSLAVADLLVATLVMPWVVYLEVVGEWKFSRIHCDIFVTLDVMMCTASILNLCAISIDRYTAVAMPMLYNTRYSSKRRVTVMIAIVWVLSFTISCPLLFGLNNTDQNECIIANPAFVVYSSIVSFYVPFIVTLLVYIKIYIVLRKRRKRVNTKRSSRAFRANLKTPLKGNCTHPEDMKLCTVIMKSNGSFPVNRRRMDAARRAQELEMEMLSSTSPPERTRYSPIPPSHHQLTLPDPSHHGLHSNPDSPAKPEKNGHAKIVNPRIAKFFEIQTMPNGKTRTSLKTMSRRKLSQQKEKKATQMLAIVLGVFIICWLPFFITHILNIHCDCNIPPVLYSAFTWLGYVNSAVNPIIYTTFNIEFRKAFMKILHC
Assay: affinity for dopamine D2-receptors by displacement experiments with [3H]-spiperone (rat striatum membranes)
Details: [3H]-spiperone; high-affinity form of the dopamine receptor
Parameter Ki: see the listing below.
Answer format: numeric, nM implied, no suffix.

Observe how each entry below is paired with its result.
>>> print(df.to_string())
                              molecule                        measurement_target  measurement
0     Nc1nc2c(s1)CCN(CC=Cc1ccccc1O)CC2  dopamine D2-receptors (Rattus norvegicus)         0.95
1      Cc1nc(C=CCN2CCc3nc(N)sc3CC2)cs1  dopamine D2-receptors (Rattus norvegicus)          6.7
2  Nc1nc2c(s1)CCN(CC=Cc1cccc(Cl)n1)CC2  dopamine D2-receptors (Rattus norvegicus)          3.2

Per the records, this molecule ( N#Cc1ccc(C=CCN2CCc3nc(N)sc3CC2)cc1 [Example 14b] ) has Ki equal to 2.6

Per the records, this molecule ( `Nc1nc2c(s1)CCN(CC=Cc1ccc(-c3ccccc3)cc1)CC2` ) has Ki equal to 3

Per the records, this molecule ( `Cl.Cl.Nc1nc2c(s1)CCN(CCCc1ccccc1)CC2` ) has Ki equal to 24

Per the records, this molecule ( `Nc1nc2c(s1)CCN(CC=Cc1ccc(OCc3ccccc3)cc1)CC2` ) has Ki equal to 8.4

Per the records, this molecule ( `Nc1nc2c(s1)CCN(CC#Cc1ccccn1)CC2` ) has Ki equal to 17

Per the records, this molecule ( Cc1cccnc1C=CCN1CCc2nc(N)sc2CC1 [Example 11i] ) has Ki equal to 2.6

Per the records, this molecule ( `Nc1nc2c(s1)CCN(CC=Cc1cccc(OCc3ccccc3)c1)CC2` ) has Ki equal to 0.73

Per the records, this molecule ( `CC(C)COc1ccc(C=CCN2CCc3nc(N)sc3CC2)cc1` ) has Ki equal to 15

----------
Parameter pKi: see the listing below.
Molecular target: dopamine D2-receptors (Rattus norvegicus)
Assay: affinity for dopamine D2-receptors by displacement experiments with [3H]-spiperone (rat striatum membranes)
Settings: [3H]-spiperone; high-affinity form of the dopamine receptor
# pKi = -log10(concentration in molar units)

Observe how each entry below is paired with its result.
>>> df
                                   compound  measurement
0  Nc1nc2c(s1)CCN(CC=Cc1ccccc1[N+](=O)[O-])CC2         8.70
1  Nc1nc2c(s1)CCN(CC=Cc1ccccc1N1CCCCC1)CC2 [Example 11p]         8.00
2     Nc1nc2c(s1)CCN(CC=Cc1ccc3ccccc3c1)CC2         8.16
3     Nc1nc2c(s1)CCN(CC=Cc1cccc3ccccc13)CC2         8.51

Next compound, please.
Per the records, this compound ( `Nc1nc2c(s1)CCN(CC(=Cc1ccccc1)c1ccccc1)CC2` ) has pKi equal to 7.85

----------
Biological target: serotonin-2(5-HT2)-receptors (Rattus norvegicus)
Construct: The frontal cortex was dissected out and placed in ice cold 0.32 M saccharose solution
Sequence (P14842 whole entry): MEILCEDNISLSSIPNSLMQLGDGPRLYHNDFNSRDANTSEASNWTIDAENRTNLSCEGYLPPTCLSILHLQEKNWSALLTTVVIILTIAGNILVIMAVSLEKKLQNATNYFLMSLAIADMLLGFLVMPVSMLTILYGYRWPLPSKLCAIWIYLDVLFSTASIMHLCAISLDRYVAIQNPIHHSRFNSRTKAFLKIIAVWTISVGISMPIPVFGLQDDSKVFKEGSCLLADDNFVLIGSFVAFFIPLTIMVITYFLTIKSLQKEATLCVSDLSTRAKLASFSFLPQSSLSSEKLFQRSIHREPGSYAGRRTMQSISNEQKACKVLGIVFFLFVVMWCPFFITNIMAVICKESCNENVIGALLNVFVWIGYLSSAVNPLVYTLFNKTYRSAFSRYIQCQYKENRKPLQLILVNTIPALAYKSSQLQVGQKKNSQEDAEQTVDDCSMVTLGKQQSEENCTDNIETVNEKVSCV
Assay: affinity for serotonin-2 (5-HT2) receptors by displacement experiments with [3H]-spiperone (rat frontal cortex)
ASSAY_READOUT: pKi
# pKi = -log10(concentration in molar units)

Observe how each entry below is paired with its result.
>>> df
                                   molecule                        measurement_target  measurement
0  Nc1nc2c(s1)CCN(CC=Cc1ccc3ccccc3c1)CC2 [Example 4u]  serotonin-2(5-HT2)-receptors (Rattus norvegicus)         6.46
1  Nc1nc2c(s1)CCN(Cc1ccc(Cl)cc1)CC2 [Compound B, reference compound]  serotonin-2(5-HT2)-receptors (Rattus norvegicus)         4.73
2  CCCN(CCC)C1CCc2cccc(O)c2C1 (stereo not drawn) [Example 8-OH-DPAT, 8-OH-DPAT, reference compound]  serotonin-2(5-HT2)-receptors (Rattus norvegicus)         5.54

Per the records, this molecule ( Nc1nc2c(s1)CCN(CC=Cc1cccc(OCc3ccccc3)c1)CC2 [Example 4y] ) has pKi equal to 6.33

Per the records, this molecule ( Nc1nc2c(s1)CCN(CC=Cc1cccc3ccccc13)CC2 [Example 4t] ) has pKi equal to 7.59

Per the records, this molecule ( Nc1nc2c(s1)CCN(CC=Cc1ccc(-c3ccccc3)cc1)CC2 [Example 4w] ) has pKi equal to 5.99
